- system-under-test: KRas WT (Homo sapiens)
- Sequence (P01116 1-169 isoform P01116-2): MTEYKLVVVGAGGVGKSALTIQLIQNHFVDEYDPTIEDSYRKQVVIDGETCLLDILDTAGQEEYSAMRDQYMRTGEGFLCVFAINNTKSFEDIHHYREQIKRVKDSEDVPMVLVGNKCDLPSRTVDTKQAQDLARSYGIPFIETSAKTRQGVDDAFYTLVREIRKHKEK
- assay-comment: KRas binding assay (TR-FRET displacement), KRas WT
- condition: single point, 10 nM compound

{"mol": "CCNC(=O)c1cc2n(n1)CCCCN(c1nc(OC[C@@]34CCCN3C[C@H](F)C4)nc3c1CCN(c1cc(O)cc4ccc(F)c(CC)c14)C3)C2", "inhibition at 0.01 µM": "89%"}
{"mol": "CCc1c(C(=O)N(C)C)nn2c1CN(c1nc(OC[C@@]34CCCN3C[C@H](F)C4)nc3c1CCN(c1cc(O)cc4ccc(F)c(CC)c14)C3)CCC2", "inhibition at 0.01 µM": "98%"}
{"mol": "CCc1c(F)ccc2cc(O)cc(N3CCc4c(nc(OC[C@@]56CCCN5C[C@H](F)C6)nc4N4CCCn5nc(N)c(Cl)c5C4)C3)c12", "inhibition at 0.01 µM": "94%"}
{"mol": "CCNc1cc2n(n1)CCCN(c1nc(OC[C@@]34CCCN3C[C@H](F)C4)nc3c1CCN(c1cc(O)cc4ccc(F)c(CC)c14)C3)C2", "inhibition at 0.01 µM": "62%"}
{"mol": "CCc1c(F)ccc2cc(O)cc(N3CCc4c(nc(OC[C@@]56CCCN5C[C@H](F)C6)nc4N4CCCn5nc(C(=O)N6CC7CCC(C7)C6)cc5C4)C3)c12", "inhibition at 0.01 µM": "89%"}
{"mol": "CCc1c(F)ccc2cc(O)cc(N3CCc4c(nc(OC[C@@]56CCCN5C[C@H](F)C6)nc4N4CCCn5nc(C(=O)N6CCN(C)CC6)cc5C4)C3)c12", "inhibition at 0.01 µM": "98%"}
{"mol": "CCc1c(F)ccc2cc(O)cc(N3CCc4c(nc(OC[C@@]56CCCN5C[C@H](F)C6)nc4N4CCCn5nc(C(=O)N(C)CCOC)cc5C4)C3)c12", "inhibition at 0.01 µM": "97%"}
{"mol": "CCc1c(F)ccc2cc(O)cc(N3CCc4c(nc(OC[C@@]56CCCN5C[C@H](F)C6)nc4N4CCCn5nc(C(=O)NC(C)C)c(Cl)c5C4)C3)c12", "inhibition at 0.01 µM": "95%"}
{"mol": "CCc1c(F)ccc2cc(O)cc(N3CCc4c(nc(OC[C@@]56CCCN5C[C@H](F)C6)nc4N4CCCn5nc(C(=O)NC(C)C)c(C)c5C4)C3)c12", "inhibition at 0.01 µM": "86%"}
{"mol": "CCc1c(F)ccc2cc(O)cc(N3CCc4c(nc(OC[C@@]56CCCN5C[C@H](F)C6)nc4N4CCCn5nc(C(=O)N6C[C@@H]7C[C@H](C6)[C@H](O)C7)cc5C4)C3)c12", "inhibition at 0.01 µM": "98%"}
{"mol": "CCc1c(F)ccc2cc(O)cc(N3CCc4c(nc(OC[C@@]56CCCN5C[C@H](F)C6)nc4N4CCCn5nc(C(=O)N6C[C@H](C)N[C@@H](C)C6)cc5C4)C3)c12", "inhibition at 0.01 µM": "98%"}

---

The following molecules are listed with their measured inhibition at 0.1 µM values.
- System: H460 cells
- assay-comment: Inhibition of KRas-mediated phosphorylation of ERK (Cisbio HTRF pERK), H460 cells
- Type: cell-based
- condition: Homo sapiens, NCI-H460, single point at 100 nM, 3 hrs compound incubation

{"molecule": "CCc1c(F)ccc2cc(O)cc(N3CCc4c(nc(OC[C@@]56CCCN5C[C@H](F)C6)nc4N4CCCn5nc(C(=O)N6CC7CC(C6)N7)cc5C4)C3)c12", "inhibition at 0.1 µM / %": 18}
{"molecule": "CCc1c(F)ccc2cc(O)cc(N3CCc4c(nc(OC[C@@]56CCCN5C[C@H](F)C6)nc4N4CCCn5nc(CNS(=O)(=O)N(C)C)cc5C4)C3)c12", "inhibition at 0.1 µM / %": 1}
{"molecule": "CCc1c(F)ccc2cc(O)cc(N3CCc4c(nc(OC[C@@]56CCCN5C[C@H](F)C6)nc4N4CCCn5nc(N(C)S(N)(=O)=O)cc5C4)C3)c12", "inhibition at 0.1 µM / %": 4}
{"molecule": "CCc1c(F)ccc2cc(O)cc(N3CCc4c(nc(OC[C@@]56CCCN5C[C@H](F)C6)nc4N4CCCn5nc(CN(C)C(=O)N(C)C)cc5C4)C3)c12", "inhibition at 0.1 µM / %": 3}
{"molecule": "CCc1c(F)ccc2cc(O)cc(N3CCc4c(nc(OC[C@@]56CCCN5C[C@H](F)C6)nc4N4CCCn5nc(C(=O)N6CC7CC6CN7)cc5C4)C3)c12 (stereo partly drawn)", "inhibition at 0.1 µM / %": 7}
{"molecule": "Cc1cc2[nH]ncc2c(N2CCc3c(nc(OCC4(CN(C)C)CC4)nc3N3CCC[C@]4(C3)NC(=O)NC4=O)C2)c1C", "inhibition at 0.1 µM / %": 9}
{"molecule": "CCc1c(F)ccc2cc(O)cc(N3CCc4c(nc(OC[C@@]56CCCN5C[C@H](F)C6)nc4N4CCCn5nc(C(=O)N6CC7CC6C7)cc5C4)C3)c12", "inhibition at 0.1 µM / %": 86}
{"molecule": "CCc1c(F)ccc2cc(O)cc(N3CCc4c(nc(OC[C@@]56CCCN5C[C@H](F)C6)nc4N4CCCCC(C(=O)N(C)C)C4)C3)c12 (stereo partly drawn)", "inhibition at 0.1 µM / %": 31}
{"molecule": "Oc1cc(N2CCc3c(nc(OC[C@@]45CCCN4C[C@H](F)C5)nc3N3CCCC4(CCSC4)C3)C2)c2c(Cl)c(F)ccc2c1 (stereo partly drawn)", "inhibition at 0.1 µM / %": -24}
{"molecule": "CCc1c(F)ccc2cc(O)cc(N3CCc4c(nc(OC[C@@]56CCCN5C[C@H](F)C6)nc4N4CCCCn5nc(C(=O)NC(C)C)c(Cl)c5C4)C3)c12", "inhibition at 0.1 µM / %": 71}
{"molecule": "CCc1c(F)ccc2cc(O)cc(N3CCc4c(nc(OC[C@@]56CCCN5C[C@H](F)C6)nc4N4CCCCn5nc(C(=O)N6CCOCC6)cc5C4)C3)c12", "inhibition at 0.1 µM / %": 87}
{"molecule": "CCc1c(F)ccc2cc(O)cc(N3CCc4c(nc(OC[C@@]56CCCN5C[C@H](F)C6)nc4N4CCCn5nc(C(=O)N6C[C@H](C)N[C@@H](C)C6)cc5C4)C3)c12", "inhibition at 0.1 µM / %": 35}

---

- system-under-test: KRas G13D (Homo sapiens, UniProt P01116, G13D)
- Sequence (P01116 1-169 isoform P01116-2 G13D): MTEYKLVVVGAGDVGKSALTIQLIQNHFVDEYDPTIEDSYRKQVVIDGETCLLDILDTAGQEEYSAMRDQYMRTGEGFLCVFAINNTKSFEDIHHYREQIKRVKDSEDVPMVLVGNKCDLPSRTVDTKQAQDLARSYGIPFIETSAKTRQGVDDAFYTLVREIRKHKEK
- Type: binding
- condition: single point, 10 nM compound, read-out: Binding to KRas (% inhibition at 10 nM) G13D

{"mol": "CCc1c(F)ccc2cc(O)cc(N3CCc4c(nc(OC[C@@]56CCCN5C[C@H](F)C6)nc4N4CCCn5nc(C(=O)N(C)C(C)C)cc5C4)C3)c12", "endpoint-unit": "%", "inhibition at 0.01 µM": 97}
{"mol": "CCc1c(F)ccc2cc(O)cc(N3CCc4c(nc(OC[C@@]56CCCN5C[C@H](F)C6)nc4N4CCCn5nc(C(=O)N(C)CCOC)cc5C4)C3)c12", "endpoint-unit": "%", "inhibition at 0.01 µM": 98}
{"mol": "CCc1c(F)ccc2cc(O)cc(N3CCc4c(nc(OC[C@@]56CCCN5C[C@H](F)C6)nc4N4CCCn5nc(NC)c(C)c5C4)C3)c12", "endpoint-unit": "%", "inhibition at 0.01 µM": 61}
{"mol": "CCc1c(F)ccc2cc(O)cc(N3CCc4c(nc(OC[C@@]56CCCN5C[C@H](F)C6)nc4N4CCCn5nc(C(=O)N(C)CCOCCOC)cc5C4)C3)c12", "endpoint-unit": "%", "inhibition at 0.01 µM": 96}
{"mol": "CCc1c(F)ccc2cc(O)cc(N3CCc4c(nc(OC[C@@]56CCCN5C[C@H](F)C6)nc4N4CCCn5nc6c(c5C4)CCCN(C)C6=O)C3)c12", "endpoint-unit": "%", "inhibition at 0.01 µM": 100}
{"mol": "CCc1c(F)ccc2cc(O)cc(N3CCc4c(nc(OC[C@@]56CCCN5C[C@H](F)C6)nc4N4CCCn5nc(CN(C)C(=O)N(C)C)cc5C4)C3)c12", "endpoint-unit": "%", "inhibition at 0.01 µM": 40}
{"mol": "CCc1c(F)ccc2cc(O)cc(N3CCc4c(nc(OC[C@@]56CCCN5C[C@H](F)C6)nc4N4CCCn5nc(NC(C)C)cc5C4)C3)c12", "endpoint-unit": "%", "inhibition at 0.01 µM": 56}
{"mol": "CCc1c(F)ccc2cc(O)cc(N3CCc4c(nc(OC[C@@]56CCCN5C[C@H](F)C6)nc4N4CCCn5nc(C(=O)NC)c(Cl)c5C4)C3)c12", "endpoint-unit": "%", "inhibition at 0.01 µM": 98}
{"mol": "CCc1c(F)ccc2cc(O)cc(N3CCc4c(nc(OC[C@@]56CCCN5C[C@H](F)C6)nc4N4CCCn5nc(C(=O)N6CC[C@@H]7CC[C@H]6C7)cc5C4)C3)c12", "endpoint-unit": "%", "inhibition at 0.01 µM": 92}
{"mol": "CCc1c(F)ccc2cc(O)cc(N3CCc4c(nc(OC[C@@]56CCCN5C[C@H](F)C6)nc4N4CCCn5nc(C(=O)N(C)C)c(Br)c5C4)C3)c12", "endpoint-unit": "%", "inhibition at 0.01 µM": 99}
{"mol": "CCc1c(F)ccc2cc(O)cc(N3CCc4c(nc(OC[C@@]56CCCN5C[C@H](F)C6)nc4N4CCCCn5nc(C(=O)N6CCOCC6)cc5C4)C3)c12", "endpoint-unit": "%", "inhibition at 0.01 µM": 97}
{"mol": "CCc1c(F)ccc2cc(O)cc(N3CCc4c(nc(OC[C@@]56CCCN5C[C@H](F)C6)nc4N4CCCn5nc(C(=O)N6C7CCCC6CC7)cc5C4)C3)c12", "endpoint-unit": "%", "inhibition at 0.01 µM": 92}
